Experiment: In vitro stability (half-life) in dog plasma
Assay type: in vitro ADME
Measurement parameters: male, dog, plasma, pH 7.4, 5 μM, dog plasma pH 7.4 with anticoagulant, 37° C.; read-out: T1/2 (minutes) Dog
Reported metric: half-life at 5 μM (min)

Sample records with half-life at 5 μM:
O=S(=O)(NO)c1ccc(Cl)s1 [Compound 86] = 12
CC(C)NC(=O)c1cc(S(=O)(=O)NO)cs1 [Compound 5] = 28
CS(=O)(=O)c1cc(S(=O)(=O)NO)cs1 [Compound 8] = 27
O=S(=O)(NO)c1cccc(S(=O)(=O)NO)c1 [Compound 88] = 16
O=S(=O)(NO)c1ccco1 [Compound 83, N-Hydroxyfuran-2-sulfonamide] = 38
Cc1ccc(F)cc1S(=O)(=O)NO [Compound 90] = 21

[I] O=S(=O)(NO)c1cccc(Br)c1 [Compound 89, 3-Bromo-N-hydroxybenzene-1-sulfonamide]
[II] Cc1noc(C)c1S(=O)(=O)NO [Compound 91]
[III] O=S(=O)(NO)c1cccc(OC(F)(F)F)c1 [Compound 92]
Query block: Task field, ranking: reported half-life at 5 μM, descending order. Write out the labels following the order that was asked for.
Result block: II, I, III
